Test system: IGROV1 ovarian
Assay: NCI-60 one-dose screen, 48 h (100 = growth as untreated, 0 = no growth, -100 = all killed)
Conditions: 10 µM
Protocol: Growth inhibition of the IGROV1 human tumor cell line is measured as a screen for anti-cancer activity. Cells are grown in 96 well plates and exposed to the test compound for 48 hours. Compounds are tested at a single concentration, which is 10^-5 M for most compounds. The reported endpoint is percent growth (GI% or GIPRCNT), where numbers from 0 - 100% represent growth inhibition, and numbers from -100% - 0 represent cell death. For example, a value of 40 represents 60% growth inhibition. […]
The panel holds about 83,000 compounds, 20% with a hit somewhere; the sample as a whole holds those more often.
Assay Metric: growth (%)

>>> measured("CC/C(=N\\N=C(/CC)c1ccc(Br)cc1)c1ccc(Br)cc1")
79.5
>>> measured("O=c1oc2cc(OS(=O)(=O)c3ccccc3)ccc2c2c1CCCCC2")
83.4
>>> measured("CCCCCCN1C(=O)C2=C(c3ccc(Cl)cc3)Nc3c(c(C)nn3-c3ccccc3)C2c2ccccc21 (centres undefined)")
100
>>> measured("Cc1cc(N(CCCNc2ccnc3cc(Cl)ccc23)Cc2cccs2)nc(Cl)n1")
50.8
>>> measured("COc1ccc(-c2ccc3cc(C(=O)Nc4ccc(O)c(C(=O)/C=C/c5cc(OC)c(OC)c(OC)c5)c4)ccc3c2)cc1")
89.6
>>> measured("C=C(NC(=O)C(=C)NC(=O)c1csc(C2=NC3c4csc(n4)C4NC(=O)c5csc(n5)C(C(C)(O)C(C)O)NC(=O)C5CSC(=N5)/C(=C/C)NC(=O)C(C(C)O)NC(=O)c5csc(n5)C3(CC2)NC(=O)C(C)NC(=O)C(=C)NC(=O)C(=C)NC(=O)C(C(C)C)NC2C=Cc3c(C(C)O)cc(nc3C2O)C(=O)OC4C)n1)C(N)=O (centres undefined)")
-18.1
>>> measured("O=C(O)C(SC(C(=O)O)c1ccccc1)c1ccccc1 (centres undefined)")
115
>>> measured("CCC(=O)N1C/C(=C/c2ccc(OC)cc2)C(=O)/C(=C/c2ccc(OC)cc2)C1")
41.8
>>> measured("Nc1ncn(C2OC(CO)C(O)C2O)c(=O)n1 (centres undefined)")
-39.8
>>> measured("N=C(N)c1ccc(-c2ccc(-c3ccccc3)o2)nc1")
95.7
>>> measured("O=C1c2ccc3c4c(ccc(c24)C(=O)N1CCNCc1ccccc1)C(=O)N(CCNCc1ccccc1)C3=O")
-75.7
>>> measured("CN(C)CCN1C(=O)c2cccc3cc(N)cc(c23)C1=O")
-39.9
>>> measured("Cc1cc2c(C)c3cc(C)c(N)cc3nc2cc1N")
-1.9
>>> measured("CN(C)C=Nc1cc(Cl)ccc1Cl")
118
>>> measured("O=C(Nc1ccccc1)Nc1cccc(-n2cc(-c3ccncc3)c(-c3ccc(O)c(Cl)c3)n2)c1")
89.7
>>> measured("C#Cc1ccc(-n2c(/C=C/c3ccc(O)cc3)nc3ncccc3c2=O)cc1")
62.5
>>> measured("CCC(=O)N1C/C(=C/c2ccc(Cl)cc2)C(=O)/C(=C/c2ccc(Cl)cc2)C1")
-66.1
>>> measured("COc1ccc(Cn2c(C(N)=O)cc3c2-c2nc(N)ncc2CCC3)cc1")
101
>>> measured("CCCCCCNC(=O)Oc1ccc(/C(=C(/CC)Cc2ccccc2)c2ccc(OCCN3CCCCC3)cc2)cc1")
91.1
>>> measured("O=C(/C=C/c1cc2ccccc2[nH]c1=O)c1ccc2c(c1)OCO2")
92.5
>>> measured("CCOCC(=O)C(C#N)c1ccc(Cl)c(Cl)c1 (centres undefined)")
101
>>> measured("CSc1cc(SC)ncn1")
116
>>> measured("COc1ccc(-c2cc(-c3cccc(NS(C)(=O)=O)c3)nc(N)c2C#N)cc1")
73.4
>>> measured("C#Cc1ccc(-n2c(/C=C/c3ccc(C(F)(F)F)cc3)nc3ncccc3c2=O)cc1")
34
>>> measured("CCOC(=O)C(NC(=O)C(Cl)Cl)C(O)c1ccccc1 (centres undefined)")
77.7
>>> measured("COC(=O)c1c(-c2ccccc2)csc1NC(=O)c1c(-c2ccccc2)noc1C")
20.6
>>> measured("COc1cc(C2CC(c3ccc(Nc4ccnc5cc(Cl)ccc45)cc3)=NN2c2ccc(Cl)cc2)cc(OC)c1OC (centres undefined)")
57.5
>>> measured("COc1ccc(/C=C/C(C)=N/OCC(=O)O)cc1")
106
>>> measured("CCOC(=O)C(=Cc1ccc(Br)cc1)C(=O)OCC")
-82.1
>>> measured("COc1cc(-c2cc(/C=C/C(=O)c3ccc(Cl)c(Cl)c3)[nH]n2)cc(OC)c1OC")
108
>>> measured("COc1ccc(-c2cc(/C=C/C(=O)c3cc(OC)c(OC)c(OC)c3)[nH]n2)cc1OC")
-9.4
>>> measured("NC1(C(=O)O)CSSC1")
90
>>> measured("O=C(CC(c1ccccc1)N1CCOCC1)c1ccccc1 (centres undefined)")
97.4
>>> measured("O=C(Nc1cccc(-n2cc(-c3ccncc3)c(-c3cc(O)cc(Cl)c3)n2)c1)c1cc(C(F)(F)F)cc(C(F)(F)F)c1")
73
>>> measured("COc1cc(CNc2ccccc2C(=O)N2CCN(C(=O)c3cc(-c4cc(OC)c(OC)c(OC)c4)n4nc(-c5ccccc5)cc4n3)CC2)cc(OC)c1OC")
44.7
>>> measured("CCCCCCCNc1nc(C=O)ncc1-c1ccc(C(F)(F)F)cc1")
89.8
>>> measured("COc1cc(-c2nnc(-c3c(-c4ccc(F)cc4)nc4ccccn34)o2)cc(OC)c1OC")
119
>>> measured("O=C1Nc2ccc(Cl)cc2/C1=C\\c1c(-c2ccc(Cl)cc2)nc2sc(C3CC3)nn12")
71.5
>>> measured("O=C(Nc1ccncc1)C(=O)c1cn(S(=O)(=O)c2cccc3ccccc23)c2ccccc12")
73.8
